system: 171881-019-R-J1-PDC multicell spheroid viability; assay: Anticancer human tumor 171881-019-R-J1-PDC patient-derived invasive breast carcinoma cell line growth inhibition [IpAb]; conditions: second compound 0.0316 µM; first compound 1 µM; stronger effect = lower value;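 note: spheroids exposed to the agents for seven days before readout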
In plain terms, low viability, T/C, meaning strictly below 40%, gives Met, and everything else gives Not met.

Reference set, count: 3
Say whether its viability, T/C is strictly beneath 40%. Entry: CC1(C)CCC(CN2CCN(c3ccc(C(=O)NS(=O)(=O)c4ccc(NCC5CCOCC5)c([N+](=O)[O-])c4)c(Oc4cnc5[nH]ccc5c4)c3)CC2)=C(c2ccc(Cl)cc2)C1 + CCN1CCN(Cc2ccc(Nc3ncc(F)c(-c4cc(F)c5nc(C)n(C(C)C)c5c4)n3)nc2)CC1
Not met

Say whether its viability, T/C is strictly beneath 40%. Entry: Cn1nccc1Nc1nccc(-c2ccn(C(CO)c3ccc(Cl)c(F)c3)c(=O)c2)n1 (stereo not given) + CCN1CCN(Cc2ccc(Nc3ncc(F)c(-c4cc(F)c5nc(C)n(C(C)C)c5c4)n3)nc2)CC1
Not met

Say whether its viability, T/C is strictly beneath 40%. Entry: Cn1ncc(Cl)c1-c1cc(C(=O)NC(CN)Cc2cccc(F)c2)sc1Cl (stereo not given) + CCN1CCN(Cc2ccc(Nc3ncc(F)c(-c4cc(F)c5nc(C)n(C(C)C)c5c4)n3)nc2)CC1
Met

Field: next compound
Say whether its viability, T/C is strictly beneath 40%. Entry: C=CCn1c(=O)c2cnc(Nc3ccc(N4CCN(C)CC4)cc3)nc2n1-c1cccc(C(C)(C)O)n1 + CCN1CCN(Cc2ccc(Nc3ncc(F)c(-c4cc(F)c5nc(C)n(C(C)C)c5c4)n3)nc2)CC1
Not met
